- target-under-test: α7 nAChR (Rattus norvegicus, UniProt Q05941)
- Sequence (Q05941 23-502): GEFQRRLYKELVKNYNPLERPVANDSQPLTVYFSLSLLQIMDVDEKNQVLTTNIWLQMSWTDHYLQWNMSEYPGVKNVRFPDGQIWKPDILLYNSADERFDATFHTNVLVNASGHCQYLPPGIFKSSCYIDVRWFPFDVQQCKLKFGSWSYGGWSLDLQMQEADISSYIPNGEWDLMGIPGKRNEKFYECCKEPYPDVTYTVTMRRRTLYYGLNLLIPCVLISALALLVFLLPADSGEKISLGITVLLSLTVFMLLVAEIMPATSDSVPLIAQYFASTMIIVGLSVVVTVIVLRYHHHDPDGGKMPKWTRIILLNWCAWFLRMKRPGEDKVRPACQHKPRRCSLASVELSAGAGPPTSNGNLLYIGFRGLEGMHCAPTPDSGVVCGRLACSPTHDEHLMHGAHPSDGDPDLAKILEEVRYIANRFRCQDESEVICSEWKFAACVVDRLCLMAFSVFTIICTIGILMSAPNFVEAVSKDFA
- experimental-details: [3H]-MLA competition binding assay, rat brain membranes
- recorded-conditions: Ki, inhibition of [3H]-MLA binding (3.0 to 4.0 nM), Sprague-Dawley rat whole brain minus cerebellum homogenate, 1 hour at 25° C
pKi: −log10 of the molar value. Where a name gives a salt, the structure may show the parent alone.
measured-property: pKi

Asked: For the record COc1cccc(-c2cnc(C(=O)N[C@H]3CN4CCC3CC4)s2)c1 [Example 93, 4-methylbenzenesulfonate] , what value of pKi is listed for α7 nAChR (Rattus norvegicus, UniProt Q05941)?
Given back: 7.35 to 7.40

Asked: For O=C(N[C@H]1CN2CCC1CC2)c1ccc(-c2cc3ccccc3s2)o1 [Example 141, 4-methylbenzenesulfonate] then?
Given back: 6.56 to 6.59

Asked: For O=C(N[C@H]1CN2CCC1CC2)c1ccc(-c2ccccc2[N+](=O)[O-])o1 [Example 110, 4-methylbenzenesulfonate] then?
Given back: 6.72 to 8.40

Asked: For O=C(N[C@H]1CN2CCC1CC2)c1ccc(-c2ccccc2Cl)s1 [Example 4, hydrochloride] then?
Given back: 7.14 to 7.22
